system: STAPHYLOCOCCUS AUREUS NCTC 10649; test: In vitro antibacterial activity, agar dilution MIC; format: cell-based; conditions: NCTC10649, 24 h
propertyLabel: MIC (µg/mL)

- CC[C@H]1OC(=O)[C@H](C)[C@@H](O[C@H]2C[C@@](C)(OC)[C@@H](O)[C@H](C)O2)[C@H](C)[C@@H](O[C@@H]2O[C@H](C)C[C@H](N(C)C)[C@H]2O)[C@](C)(O)C[C@@H](C)[C@@H](N(C)C)[C@H](C)[C@@H](O)[C@@]1(O)CN(C)Cc1ccccc1: 12.5

Cited source: patent US5217960A
